The measured values listed here are drawn from paper PMC5415745.

Tested on: Caco-2 cell monolayers
measurement-notes: Bidirectional (AP→BL, BL→AP) drug transport across Caco-2 cell monolayers in transwells: cumulative transport, Papp, efflux ratio; HPLC or radiolabeled assay
protocol-conditions: SQV alone (PZQ experiment); after 60min; mean
property-measured: PappAB Mean
Note: state the figure and append the unit.

Kindly indicate its recorded PappAB Mean. Item: CC(C)(C)NC(=O)[C@@H]1C[C@@H]2CCCC[C@@H]2CN1C[C@@H](O)[C@H](Cc1ccccc1)NC(=O)[C@H](CC(N)=O)NC(=O)c1ccc2ccccc2n1 [SQV, saquinavir]
65.6 nm/s

====

measurement-notes: Bidirectional (AP→BL, BL→AP) drug transport across Caco-2 cell monolayers in transwells: cumulative transport, Papp, efflux ratio; HPLC or radiolabeled assay
protocol-conditions: human, Caco-2, PappBA Papp, SQV alone; after 60 min; samples 1-3
property-measured: Papp B→A at 60 min (×10⁻⁶ cm/s)
Just the number in ×10⁻⁶ cm/s, nothing appended.

Kindly indicate its recorded Papp B→A at 60 min. Item: "CC(C)(C)NC(=O)[C@@H]1C[C@@H]2CCCC[C@@H]2CN1C[C@@H](O)[C@H](Cc1ccccc1)NC(=O)[C@H](CC(N)=O)NC(=O)c1ccc2ccccc2n1"
25.1

====

measurement-notes: Bidirectional (AP→BL, BL→AP) drug transport across Caco-2 cell monolayers in transwells: cumulative transport, Papp, efflux ratio; HPLC or radiolabeled assay
protocol-conditions: human, Caco-2, PappAB, Papp, samples after 60min; individual samples 1-3
property-measured: Papp A→B at 60 min (×10⁻⁶ cm/s)
Just the number in ×10⁻⁶ cm/s, nothing appended.

Kindly indicate its recorded Papp A→B at 60 min. Item: O=C1Nc2ccc(Cl)cc2[C@@](C#CC2CC2)(C(F)(F)F)O1 [EFV, efavirenz]
20

====

Tested on: Caco-2 cell monolayers
measurement-notes: Bidirectional (AP→BL, BL→AP) drug transport across Caco-2 cell monolayers in transwells: cumulative transport, Papp, efflux ratio; HPLC or radiolabeled assay
protocol-conditions: PZQ alone (SQV experiment); after 60min; mean
property-measured: PappAB Mean (×10⁻⁶ cm/s)
Just the number in ×10⁻⁶ cm/s, nothing appended.

Kindly indicate its recorded PappAB Mean. Item: O=C(C1CCCCC1)N1CC(=O)N2CCc3ccccc3C2C1 (stereo not shown)
7.64

====

measurement-notes: in vitro
protocol-conditions: human, Caco-2, PappBA, Mean
property-measured: Papp B→A at 10800 sec (×10⁻⁶ cm/s)
Just the number in ×10⁻⁶ cm/s, nothing appended.

Kindly indicate its recorded Papp B→A at 10800 sec. Item: O=C(C1CCCCC1)N1CC(=O)N2CCc3ccccc3C2C1 (stereo not shown)
47.9

====

System: Caco-2 cell monolayers
measurement-notes: Bidirectional (AP→BL, BL→AP) drug transport across Caco-2 cell monolayers in transwells: cumulative transport, Papp, efflux ratio; HPLC or radiolabeled assay
protocol-conditions: mean (n=3) after 60 min; drug A alone, or label 'A + B' = transport of A in presence of interacting drug B; concentrations per Table 1
property-measured: Papp BL → AP
Note: state the figure and append the unit.

Kindly indicate its recorded Papp BL → AP. Item: "O=C1Nc2ccc(Cl)cc2[C@@](C#CC2CC2)(C(F)(F)F)O1"
10.8 ×10⁻⁶ cm/s

====

measurement-notes: Bidirectional (AP→BL, BL→AP) drug transport across Caco-2 cell monolayers in transwells: cumulative transport, Papp, efflux ratio; HPLC or radiolabeled assay
protocol-conditions: human, Caco-2, PappAB Papp, [3H] LPV alone; after 60 min; samples 1-3
property-measured: Papp A→B at 60 min
Note: state the figure and append the unit.

Kindly indicate its recorded Papp A→B at 60 min. Item: "Cc1cccc(C)c1OCC(=O)N[C@@H](Cc1ccccc1)[C@@H](O)C[C@H](Cc1ccccc1)NC(=O)[C@H](C(C)C)N1CCCNC1=O"
5.95 ×10⁻⁶ cm/s

====

measurement-notes: in vitro
protocol-conditions: human, Caco-2, PappAB, Mean
property-measured: Papp A→B at 14400 sec (×10⁻⁶ cm/s)
Just the number in ×10⁻⁶ cm/s, nothing appended.

Kindly indicate its recorded Papp A→B at 14400 sec. Item: O=C(C1CCCCC1)N1CC(=O)N2CCc3ccccc3C2C1 (stereo not shown) [PZQ, praziquantel]
53.9

====

measurement-notes: Bidirectional (AP→BL, BL→AP) drug transport across Caco-2 cell monolayers in transwells: cumulative transport, Papp, efflux ratio; HPLC or radiolabeled assay
protocol-conditions: human, Caco-2, Papp BL → AP, mean (n=3) after 60 min; drug A alone, or label 'A + B' = transport of A in presence of interacting drug B; concentrations per Table 1
Parameter: Papp B→A at 60 min. Scope: all listed entries.
Just the number in ×10⁻⁶ cm/s, nothing appended.

Check out these entries, answers already filled in.
O=C1Nc2ccc(Cl)cc2[C@@](C#CC2CC2)(C(F)(F)F)O1 10.8
Cc1ccnc2c1NC(=O)c1cccnc1N2C1CC1 39.5
CC(C)(C)NC(=O)[C@@H]1C[C@@H]2CCCC[C@@H]2CN1C[C@@H](O)[C@H](Cc1ccccc1)NC(=O)[C@H](CC(N)=O)NC(=O)c1ccc2ccccc2n1 21.1

Kindly indicate its recorded Papp B→A at 60 min. Item: "Cc1cccc(C)c1OCC(=O)N[C@@H](Cc1ccccc1)[C@@H](O)C[C@H](Cc1ccccc1)NC(=O)[C@H](C(C)C)N1CCCNC1=O"
32.1

====

measurement-notes: Bidirectional (AP→BL, BL→AP) drug transport across Caco-2 cell monolayers in transwells: cumulative transport, Papp, efflux ratio; HPLC or radiolabeled assay
protocol-conditions: human, Caco-2, PappAB Papp, [3H] NVP alone; after 60 min; samples 1-3
property-measured: Papp A→B at 60 min (×10⁻⁶ cm/s)
Just the number in ×10⁻⁶ cm/s, nothing appended.

Kindly indicate its recorded Papp A→B at 60 min. Item: "Cc1ccnc2c1NC(=O)c1cccnc1N2C1CC1"
52.9

====

measurement-notes: Bidirectional (AP→BL, BL→AP) drug transport across Caco-2 cell monolayers in transwells: cumulative transport, Papp, efflux ratio; HPLC or radiolabeled assay
protocol-conditions: human, Caco-2, PappBA, Papp, samples after 60min; individual samples 1-3
property-measured: Papp B→A at 60 min (×10⁻⁶ cm/s)
Just the number in ×10⁻⁶ cm/s, nothing appended.

Kindly indicate its recorded Papp B→A at 60 min. Item: "O=C1Nc2ccc(Cl)cc2[C@@](C#CC2CC2)(C(F)(F)F)O1"
13.4

====

Tested on: Caco-2 cell monolayers
measurement-notes: Bidirectional (AP→BL, BL→AP) drug transport across Caco-2 cell monolayers in transwells: cumulative transport, Papp, efflux ratio; HPLC or radiolabeled assay
protocol-conditions: mean (n=3) after 60 min; drug A alone, or label 'A + B' = transport of A in presence of interacting drug B; concentrations per Table 1
property-measured: Papp AP → BL (×10⁻⁶ cm/s)
Just the number in ×10⁻⁶ cm/s, nothing appended.

O=C1Nc2ccc(Cl)cc2[C@@](C#CC2CC2)(C(F)(F)F)O1 16.5

Now for another entry.
Kindly indicate its recorded Papp AP → BL. Item: "CC(C)(C)NC(=O)[C@@H]1C[C@@H]2CCCC[C@@H]2CN1C[C@@H](O)[C@H](Cc1ccccc1)NC(=O)[C@H](CC(N)=O)NC(=O)c1ccc2ccccc2n1"
6.6

====

measurement-notes: Bidirectional (AP→BL, BL→AP) drug transport across Caco-2 cell monolayers in transwells: cumulative transport, Papp, efflux ratio; HPLC or radiolabeled assay
protocol-conditions: human, Caco-2, PappBA Papp, [3H] NVP alone; after 60 min; samples 1-3
property-measured: Papp B→A at 60 min (×10⁻⁶ cm/s)
Just the number in ×10⁻⁶ cm/s, nothing appended.

Kindly indicate its recorded Papp B→A at 60 min. Item: Cc1ccnc2c1NC(=O)c1cccnc1N2C1CC1 [NVP, nevirapine]
54.7

====

Parameter: Papp A→B at 60 min. Scope: all listed entries.
measurement-notes: Bidirectional (AP→BL, BL→AP) drug transport across Caco-2 cell monolayers in transwells: cumulative transport, Papp, efflux ratio; HPLC or radiolabeled assay
protocol-conditions: human, Caco-2, Papp AP → BL, mean (n=3) after 60 min; drug A alone, or label 'A + B' = transport of A in presence of interacting drug B; concentrations per Table 1
Just the number in ×10⁻⁶ cm/s, nothing appended.

Check out these entries, answers already filled in.
O=C1Nc2ccc(Cl)cc2[C@@](C#CC2CC2)(C(F)(F)F)O1 16.5
Cc1ccnc2c1NC(=O)c1cccnc1N2C1CC1 42.7
Cc1cccc(C)c1OCC(=O)N[C@@H](Cc1ccccc1)[C@@H](O)C[C@H](Cc1ccccc1)NC(=O)[C@H](C(C)C)N1CCCNC1=O 4.8

Now for another entry.
Kindly indicate its recorded Papp A→B at 60 min. Item: "CC(C)(C)NC(=O)[C@@H]1C[C@@H]2CCCC[C@@H]2CN1C[C@@H](O)[C@H](Cc1ccccc1)NC(=O)[C@H](CC(N)=O)NC(=O)c1ccc2ccccc2n1"
6.9
